molecular target: 15-LOX (Homo sapiens (Human), UniProt P16050); assay: 15-LOX IC50 determination, UV-Vis assay with arachidonic acid substrate (selectivity); assay type: biochemical; conditions: selectivity for 12-LOX over 15-LOX; 120 nM 15-LOX, AA substrate
Sequence (P16050 whole entry): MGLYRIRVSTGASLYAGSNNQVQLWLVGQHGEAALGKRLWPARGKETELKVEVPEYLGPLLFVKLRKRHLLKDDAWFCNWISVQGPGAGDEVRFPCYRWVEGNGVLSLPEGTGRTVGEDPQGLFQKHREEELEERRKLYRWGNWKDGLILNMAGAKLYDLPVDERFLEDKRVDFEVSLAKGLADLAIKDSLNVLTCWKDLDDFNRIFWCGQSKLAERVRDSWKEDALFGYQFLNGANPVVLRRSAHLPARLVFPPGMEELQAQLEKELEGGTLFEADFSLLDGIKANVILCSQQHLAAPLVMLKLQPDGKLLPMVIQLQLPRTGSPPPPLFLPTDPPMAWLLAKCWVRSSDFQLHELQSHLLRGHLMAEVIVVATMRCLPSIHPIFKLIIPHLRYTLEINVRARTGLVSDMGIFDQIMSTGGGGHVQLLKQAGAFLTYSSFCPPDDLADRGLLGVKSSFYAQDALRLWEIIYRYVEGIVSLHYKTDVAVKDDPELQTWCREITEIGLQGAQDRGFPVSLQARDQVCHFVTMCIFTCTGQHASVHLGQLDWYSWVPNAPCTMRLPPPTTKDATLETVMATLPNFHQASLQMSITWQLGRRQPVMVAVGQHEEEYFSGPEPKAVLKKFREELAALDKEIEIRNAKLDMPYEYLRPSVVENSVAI
Task for the reader: assign each of the following compounds its reported Selectivity over 15-LOX.

QUERY: Reported Selectivity over 15-LOX for COc1cccc(CNc2cnc(S(=O)(=O)Nc3nc(-c4ccc(F)c(Cl)c4)c(F)s3)c(C)c2)c1O : what is it?
RESULT: >50-fold

QUERY: Reported Selectivity over 15-LOX for COc1cccc(CNc2ccc(S(=O)(=O)Nc3nc(-c4ccc(C(C)C)cc4)c(F)s3)nc2)c1O : what is it?
RESULT: >20-fold

QUERY: Reported Selectivity over 15-LOX for COc1cccc(CNc2ccc(S(=O)(=O)Nc3nc4c(ccc5ccccc54)s3)nc2)c1O : what is it?
RESULT: >50-fold

QUERY: Reported Selectivity over 15-LOX for Cc1cc(NCc2cccc(OC(F)(F)F)c2O)cnc1S(=O)(=O)Nc1nc(-c2ccc(F)c(Cl)c2)c(F)s1 : what is it?
RESULT: <20-fold

QUERY: Reported Selectivity over 15-LOX for [2H]C([2H])([2H])Oc1cccc(CNc2ccc(S(=O)(=O)Nc3nc(-c4ccc(Cl)c(F)c4)c(F)s3)nc2)c1O : what is it?
RESULT: >50-fold

QUERY: Reported Selectivity over 15-LOX for COc1cccc(CNc2ccc(S(=O)(=O)Nc3nc(-c4ccc(C5CC5)cc4)cs3)nc2)c1O : what is it?
RESULT: >50-fold

QUERY: Reported Selectivity over 15-LOX for COc1cccc(CNc2ccc(S(=O)(=O)Nc3nc(-c4ccc(F)c(Cl)c4)c(CO)s3)nc2)c1O : what is it?
RESULT: >50-fold

QUERY: Reported Selectivity over 15-LOX for COc1cccc(CNc2ccc(S(=O)(=O)Nc3nc(-c4ccc(Cl)c(F)c4)c(F)s3)nc2)c1O : what is it?
RESULT: >50-fold

QUERY: Reported Selectivity over 15-LOX for COc1cccc(CNc2ccc(S(=O)(=O)Nc3nc(-c4ccc(Cl)c(F)c4)cs3)nc2)c1O : what is it?
RESULT: >50-fold

QUERY: Reported Selectivity over 15-LOX for COc1cccc(CNc2ccc(S(=O)(=O)Nc3nc(-c4ccc(F)c(F)c4)c(F)s3)nc2)c1O : what is it?
RESULT: >50-fold

QUERY: Reported Selectivity over 15-LOX for COc1cccc(CNc2cnc(S(=O)(=O)Nc3nc(-c4ccc(F)c(Cl)c4)cs3)c(C)c2)c1O : what is it?
RESULT: >50-fold

QUERY: Reported Selectivity over 15-LOX for COc1cccc(CNc2cnc(S(=O)(=O)Nc3nc(-c4ccc(Cl)c(F)c4)cs3)c(C)c2)c1O : what is it?
RESULT: >50-fold

QUERY: Reported Selectivity over 15-LOX for COc1cccc(CNc2ccc(S(=O)(=O)Nc3nc(-c4ccc(C(C)C)cc4)cs3)nc2)c1O : what is it?
RESULT: >50-fold

QUERY: Reported Selectivity over 15-LOX for COc1cccc(CNc2cnc(S(=O)(=O)Nc3nc(-c4ccc(F)c(F)c4)cs3)c(C)c2)c1O : what is it?
RESULT: >50-fold

QUERY: Reported Selectivity over 15-LOX for COc1cccc(CNc2ccc(S(=O)(=O)Nc3nc(-c4ccc(F)c(Cl)c4)c(F)s3)nc2)c1O : what is it?
RESULT: >50-fold

QUERY: Reported Selectivity over 15-LOX for [2H]C([2H])([2H])Oc1cccc(CNc2cnc(S(=O)(=O)Nc3nc(-c4ccc(Cl)c(F)c4)c(F)s3)c(C)c2)c1O : what is it?
RESULT: >50-fold

QUERY: Reported Selectivity over 15-LOX for COc1cccc(CNc2cnc(S(=O)(=O)Nc3nc(-c4ccc(Cl)c(F)c4)c(F)s3)c(C)c2)c1O : what is it?
RESULT: >50-fold

QUERY: Reported Selectivity over 15-LOX for COc1cccc(CNc2ccc(S(=O)(=O)Nc3nc(-c4ccc(C(F)(F)F)c(F)c4)cs3)nc2)c1O : what is it?
RESULT: >50-fold

QUERY: Reported Selectivity over 15-LOX for COc1cccc(CNc2cnc(S(=O)(=O)Nc3nc(-c4ccc(F)c(Cl)c4)c(F)s3)cc2C)c1O : what is it?
RESULT: <10-fold

QUERY: Reported Selectivity over 15-LOX for COc1cccc(CNc2ccc(S(=O)(=O)Nc3nc(-c4ccc(C(F)(F)F)c(F)c4)c(F)s3)nc2)c1O : what is it?
RESULT: >50-fold

QUERY: Reported Selectivity over 15-LOX for COc1cccc(CNc2ccc(S(=O)(=O)Nc3nc(-c4ccc(F)c(Cl)c4)cs3)nc2)c1O : what is it?
RESULT: >50-fold

QUERY: Reported Selectivity over 15-LOX for COc1cccc(CNc2cnc(S(=O)(=O)Nc3nc(-c4ccc(F)c(Cl)c4)c(F)s3)c(C(F)(F)F)c2)c1O : what is it?
RESULT: >20-fold

QUERY: Reported Selectivity over 15-LOX for [2H]C([2H])([2H])Oc1cccc(CNc2cnc(S(=O)(=O)Nc3nc(-c4ccc(F)c(F)c4)c(F)s3)c(C)c2)c1O : what is it?
RESULT: >50-fold

QUERY: Reported Selectivity over 15-LOX for COc1cccc(CNc2cnc(S(=O)(=O)Nc3nc(-c4ccc(F)c(Cl)c4)c(F)s3)c(C3CC3)c2)c1O : what is it?
RESULT: <20-fold

QUERY: Reported Selectivity over 15-LOX for COc1cccc(CNc2ccc(S(=O)(=O)Nc3nc(-c4ccc(F)c(F)c4)cs3)nc2)c1O : what is it?
RESULT: >50-fold

QUERY: Reported Selectivity over 15-LOX for COc1cccc(CNc2ccc(S(=O)(=O)Nc3nc(-c4ccc(F)c(Cl)c4)c(F)s3)nc2C)c1O : what is it?
RESULT: ~10-fold

QUERY: Reported Selectivity over 15-LOX for CCOc1cccc(CNc2cnc(S(=O)(=O)Nc3nc(-c4ccc(F)c(Cl)c4)c(F)s3)c(C)c2)c1O : what is it?
RESULT: <20-fold

QUERY: Reported Selectivity over 15-LOX for [2H]C([2H])([2H])Oc1cccc(CNc2cnc(S(=O)(=O)Nc3nc(-c4ccc(F)c(Cl)c4)c(F)s3)c(C)c2)c1O : what is it?
RESULT: >50-fold

QUERY: Reported Selectivity over 15-LOX for COc1cccc(CN(C)c2ccc(S(=O)(=O)Nc3nc(-c4ccc(F)c(F)c4)c(F)s3)nc2)c1O : what is it?
RESULT: >20-fold

QUERY: Reported Selectivity over 15-LOX for COc1cccc(CNc2cnc(S(=O)(=O)Nc3nc(-c4ccc(F)c(F)c4)c(F)s3)c(C(F)(F)F)c2)c1O : what is it?
RESULT: <10-fold

Data credit: patent US20250066345A1
